Test system: HCV 1b genotype
assaySummary: microbe, parasite or virus in culture
Type: cell-based
particulars: Hepatitis C virus; HCV 1b genotype replicon; read-out: EC50 Range
pEC50: −log10 of the molar value.
Measured pEC50 values are reported for all entries that follow.

Answered cases to consult:
[
  {
    "compound": "COC(=O)N[C@H](C(=O)N1[C@@H]2C[C@@H]2C[C@H]1c1ncc(-c2ccc(-c3ccc(-c4cnc([C@@H]5C[C@H]6C[C@H]6N5C(=O)[C@@H](NC(=O)OC)C5CCOCC5)[nH]4)c4c3CCC4)cc2)[nH]1)C1CCOCC1",
    "targetUnderTest": "HCV 1b genotype",
    "pEC50": "10.05 to 10.96"
  },
  {
    "compound": "COC(=O)N[C@H](C(=O)N1[C@@H](C)CC[C@H]1c1ncc(-c2ccc(-c3ccc(-c4coc([C@@H]5CC[C@H](C)N5C(=O)[C@@H](NC(=O)OC)C5CCOCC5)n4)c4c3CCC4)cc2)[nH]1)C1CCOCC1",
    "targetUnderTest": "HCV 1b genotype",
    "pEC50": "9.80 to 10.04"
  },
  {
    "compound": "COC(=O)NC(C(=O)N1[C@@H]2C[C@@H]2C[C@H]1c1ncc(-c2ccc(-c3cc(-c4cnc([C@@H]5C[C@H]6C[C@H]6N5C(=O)[C@@H](NC(=O)OC)C(C)C)[nH]4)cc4c3CCC4)cc2)[nH]1)C(C)C (stereo partly shown)",
    "targetUnderTest": "HCV 1b genotype",
    "pEC50": "9.80 to 10.04"
  },
  {
    "compound": "COC(=O)N[C@H](C(=O)N1CCC[C@H]1c1ncc(-c2ccc(-c3ccc(-c4cnc([C@@H]5CCCN5C(=O)[C@@H](NC(=O)OC)C5CCOCC5)[nH]4)c4ccccc34)cc2)[nH]1)C1CCOCC1",
    "targetUnderTest": "HCV 1b genotype",
    "pEC50": "10.05 to 10.96"
  },
  {
    "compound": "COC(=O)N[C@H](C(=O)N1[C@@H]2C[C@@H]2C[C@H]1c1ncc(-c2ccc(-c3ccc(-c4cnc([C@@H]5C[C@H]6C[C@H]6N5C(=O)[C@@H](NC(=O)OC)C(C)C)[nH]4)c4nc[nH]c34)cc2)[nH]1)C(C)C",
    "targetUnderTest": "HCV 1b genotype",
    "pEC50": "10.05 to 10.96"
  },
  {
    "compound": "COC(=O)N[C@H](C(=O)N1[C@@H](C)CC[C@H]1c1ncc(-c2ccc(-c3ccc(-c4cnc([C@@H]5CC[C@H](C)N5C(=O)[C@@H](NC(=O)OC)C5CCOCC5)[nH]4)c4nc[nH]c34)cc2)[nH]1)C1CCOCC1",
    "targetUnderTest": "HCV 1b genotype",
    "pEC50": "8.30 to 9.79"
  }
]

Record summary for COC(=O)N[C@H](C(=O)N1[C@@H]2C[C@@H]2C[C@H]1c1ncc(-c2ccc(-c3ccc(-c4cnc([C@@H]5C[C@H]6C[C@H]6N5C(=O)[C@@H](NC(=O)OC)C5CCOCC5)[nH]4)c4nc[nH]c34)cc2)[nH]1)C1CCOCC1 : reported pEC50 = 8.30 to 9.79
